The values you see were collected from PubChem BioAssay AID1963865.

Entries and their viability, T/C values follow.
System: KRAS PDC multicell spheroid viability
assay_info: Anticancer human tumor 825966-067-R-J1-PDC patient-derived colon carcinoma cell line growth inhibition [KRAS2]
condition_set: second compound 10 µM; first compound 0.01 µM; hits give low values
Text: Multicellular complex tumor spheroid response to RAS pathway inhibitors in combination with a targeted agents in patient-derived cell lines with oncogenic KRAS variants from multiple cancer types A high-throughput screen of multi-cell type tumor spheroids was designed to identify active combinations of targeted small molecules and KRAS pathway inhibitors. […] Compounds. […] If the clinical Cmax for an agent had not been determined, the highest concentration tested was 10 microM. […]
Lab book: enter the figure in %, no units written.

Look at this compound and give its reported viability, T/C. CC1COCCN1c1cc(-c2ccnn2C)c2ccnc(-c3ccn[nH]3)c2n1 (stereo unspecified) + COc1cc2nc(C)nc(NC(C)c3cc(N)cc(C(F)(F)F)c3)c2cc1OC1CCOC1
56.6

Look at this compound and give its reported viability, T/C. CCN1CCN(Cc2ccc(Nc3ncc(F)c(-c4cc(F)c5nc(C)n(C(C)C)c5c4)n3)nc2)CC1 + CNCc1ccccc1-c1csc(C(C)Nc2nc(C)nc3cc(OC)c(OC)cc23)c1
0.29

Look at this compound and give its reported viability, T/C. CN(C)C/C=C/C(=O)Nc1cc2c(Nc3ccc(F)c(Cl)c3)ncnc2cc1O[C@H]1CCOC1 + CC1OCC2(CCN(c3cnc(Sc4ccnc(N)c4Cl)c(N)n3)CC2)C1N
107

Look at this compound and give its reported viability, T/C. CC(=O)OC12COC1CC(O)C1(C)C(=O)C(O)C3=C(C)C(OC(=O)C(O)C(NC(=O)OC(C)(C)C)c4ccccc4)CC(O)(C(OC(=O)c4ccccc4)C21)C3(C)C (stereo unspecified) + COc1cc2nc(C)nc(NC(C)c3cc(N)cc(C(F)(F)F)c3)c2cc1OC1CCOC1
11.7

Look at this compound and give its reported viability, T/C. CC(C)n1nc(-c2ccc3oc(N)nc3c2)c2c(N)ncnc21 + COc1cc2nc(C)nc(NC(C)c3cc(N)cc(C(F)(F)F)c3)c2cc1OC1CCOC1
12.3

Look at this compound and give its reported viability, T/C. Cn1ncnc1[C@H]1c2n[nH]c(=O)c3cc(F)cc(c23)N[C@@H]1c1ccc(F)cc1 + COc1cc2nc(C)nc(NC(C)c3cc(N)cc(C(F)(F)F)c3)c2cc1OC1CCOC1
21.1

====

Entries and their viability, T/C values follow.
Tested on: KRAS PDC multicell spheroid viability
assay_info: Anticancer human tumor 825966-067-R-J1-PDC cell line growth inhibition [KRAS2];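 also: spheroids exposed to compounds for 7 days; 100% = DMSO vehicle control viability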
condition_set: second compound 1 µM; first compound 10 µM; hits give low values
Lab book: enter the figure in %, no units written.

Before answering, review these 4 worked examples.
- compound: "COC(=O)c1ccc2c(C(=Nc3ccc(N(C)C(=O)CN4CCN(C)CC4)cc3)c3ccccc3)c(O)[nH]c2c1 + CC1OCC2(CCN(c3cnc(Sc4ccnc(N)c4Cl)c(N)n3)CC2)C1N"
  readout_value: 0.2
- compound: "Cn1nccc1Nc1nccc(-c2cc3c(s2)C(C)(C)N(CCN2CCOCC2)C3=O)n1 + C=CC(=O)N1CCN(c2nc(=O)n(-c3c(C)ccnc3C(C)C)c3nc(-c4c(O)cccc4F)c(F)cc23)C(C)C1"
  readout_value: 38
- compound: "O=C(c1cc(Cc2n[nH]c(=O)c3ccccc23)ccc1F)N1CCN(C(=O)C2CC2)CC1 + C=CC(=O)N1CCN(c2nc(OCC3CCCN3C)nc3c2CCN(c2cccc4cccc(C)c24)C3)CC1CC#N"
  readout_value: 125
- compound: "CC1OCC2(CCN(c3cnc(Sc4ccnc(N)c4Cl)c(N)n3)CC2)C1N (stereo not given) + C=CC(=O)N1CCN(c2nc(OCC3CCCN3C)nc3c2CCN(c2cccc4cccc(C)c24)C3)CC1CC#N"
  readout_value: 29.1

Proceed to the following item.
GET /values?readout=viability, T/C&system=KRAS PDC multicell spheroid viability&item= CC1(C)CCC(CN2CCN(c3ccc(C(=O)NS(=O)(=O)c4ccc(NCC5CCOCC5)c([N+](=O)[O-])c4)c(Oc4cnc5[nH]ccc5c4)c3)CC2)=C(c2ccc(Cl)cc2)C1 + C=CC(=O)N1CCN(c2nc(OCC3CCCN3C)nc3c2CCN(c2cccc4cccc(C)c24)C3)CC1CC#N
0.52

====

Tested on: KRAS PDC multicell spheroid viability
assay_info: Anticancer human tumor 825966-067-R-J1-PDC cell line growth inhibition [KRAS2]; active means viability on the fitted dose curve at most 10% of control; inactive means the rest;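 also: spheroids exposed to compounds for 7 days; 100% = DMSO vehicle control viability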
condition_set: second compound 1 µM; first compound 10 µM
The reply should name one outcome from active, inactive

The following compounds have reported results that may help.
- compound: "CC(C)NCC(C(=O)N1CCN(c2ncnc3c2C(C)CC3O)CC1)c1ccc(Cl)cc1 (stereo not given) + CNCc1ccccc1-c1csc(C(C)Nc2nc(C)nc3cc(OC)c(OC)cc23)c1"
  category_label: "active"
- compound: "COC(=O)c1ccc2c(C(=Nc3ccc(N(C)C(=O)CN4CCN(C)CC4)cc3)c3ccccc3)c(O)[nH]c2c1 + CNCc1ccccc1-c1csc(C(C)Nc2nc(C)nc3cc(OC)c(OC)cc23)c1"
  category_label: "active"
- compound: "Cn1nccc1Nc1nccc(-c2cc3c(s2)C(C)(C)N(CCN2CCOCC2)C3=O)n1 + CC1OCC2(CCN(c3cnc(Sc4ccnc(N)c4Cl)c(N)n3)CC2)C1N"
  category_label: "inactive"
- compound: "O=C(c1cc(Cc2n[nH]c(=O)c3ccccc23)ccc1F)N1CCN(C(=O)C2CC2)CC1 + C=CC(=O)N1CCN(c2nc(=O)n(-c3c(C)ccnc3C(C)C)c3nc(-c4c(O)cccc4F)c(F)cc23)C(C)C1"
  category_label: "inactive"
- compound: "CC1(C)CCC(CN2CCN(c3ccc(C(=O)NS(=O)(=O)c4ccc(NCC5CCOCC5)c([N+](=O)[O-])c4)c(Oc4cnc5[nH]ccc5c4)c3)CC2)=C(c2ccc(Cl)cc2)C1 + CNCc1ccccc1-c1csc(C(C)Nc2nc(C)nc3cc(OC)c(OC)cc23)c1"
  category_label: "active"
- compound: "CCNC(=O)CC1N=C(c2ccc(Cl)cc2)c2cc(OC)ccc2-n2c(C)nnc21 (stereo not given) + CNCc1ccccc1-c1csc(C(C)Nc2nc(C)nc3cc(OC)c(OC)cc23)c1"
  category_label: "inactive"
- compound: "CCNC(=O)CC1N=C(c2ccc(Cl)cc2)c2cc(OC)ccc2-n2c(C)nnc21 (stereo not given) + CC1OCC2(CCN(c3cnc(Sc4ccnc(N)c4Cl)c(N)n3)CC2)C1N"
  category_label: "inactive"
- compound: "CC1(C)CCC(CN2CCN(c3ccc(C(=O)NS(=O)(=O)c4ccc(NCC5CCOCC5)c([N+](=O)[O-])c4)c(Oc4cnc5[nH]ccc5c4)c3)CC2)=C(c2ccc(Cl)cc2)C1 + C=CC(=O)N1CCN(c2nc(=O)n(-c3c(C)ccnc3C(C)C)c3nc(-c4c(O)cccc4F)c(F)cc23)C(C)C1"
  category_label: "active"
- compound: "COc1cc(Nc2ncc3c(n2)-c2ccc(Cl)cc2C(c2c(F)cccc2OC)=NC3)ccc1C(=O)O + CC1OCC2(CCN(c3cnc(Sc4ccnc(N)c4Cl)c(N)n3)CC2)C1N"
  category_label: "inactive"

Attention now turns to another entry.
What classification did COc1cc(Nc2ncc3c(n2)-c2ccc(Cl)cc2C(c2c(F)cccc2OC)=NC3)ccc1C(=O)O + C=CC(=O)N1CCN(c2nc(OCC3CCCN3C)nc3c2CCN(c2cccc4cccc(C)c24)C3)CC1CC#N end up with in this test?
inactive

====

Tested on: KRAS PDC multicell spheroid viability
assay_info: Anticancer human tumor 825966-067-R-J1-PDC cell line growth inhibition [KRAS2];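 also: spheroids exposed to compounds for 7 days; 100% = DMSO vehicle control viability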
condition_set: second compound 0.1 µM; first compound 3.16 µM; hits give low values
Please respond with Condition met when measured viability, T/C is strictly beneath 30%, and with Condition not met in all other cases.

The following compounds have reported results that may help.
- compound: "CC(=O)OC12COC1CC(O)C1(C)C(=O)C(O)C3=C(C)C(OC(=O)C(O)C(NC(=O)OC(C)(C)C)c4ccccc4)CC(O)(C(OC(=O)c4ccccc4)C21)C3(C)C (centres undefined) + C=CC(=O)N1CCN(c2nc(=O)n(-c3c(C)ccnc3C(C)C)c3nc(-c4c(O)cccc4F)c(F)cc23)C(C)C1"
  category_label: "Condition not met"
- compound: "CC1(C)CCC(CN2CCN(c3ccc(C(=O)NS(=O)(=O)c4ccc(NCC5CCOCC5)c([N+](=O)[O-])c4)c(Oc4cnc5[nH]ccc5c4)c3)CC2)=C(c2ccc(Cl)cc2)C1 + CC1OCC2(CCN(c3cnc(Sc4ccnc(N)c4Cl)c(N)n3)CC2)C1N"
  category_label: "Condition met"
- compound: "CC1(C)CCC(CN2CCN(c3ccc(C(=O)NS(=O)(=O)c4ccc(NCC5CCOCC5)c([N+](=O)[O-])c4)c(Oc4cnc5[nH]ccc5c4)c3)CC2)=C(c2ccc(Cl)cc2)C1 + C=CC(=O)N1CCN(c2nc(=O)n(-c3c(C)ccnc3C(C)C)c3nc(-c4c(O)cccc4F)c(F)cc23)C(C)C1"
  category_label: "Condition met"

Decide: viability, T/C of O=C(c1cc(Cc2n[nH]c(=O)c3ccccc23)ccc1F)N1CCN(C(=O)C2CC2)CC1 + CNCc1ccccc1-c1csc(C(C)Nc2nc(C)nc3cc(OC)c(OC)cc23)c1 strictly below 30%?
Condition not met

Decide: viability, T/C of Cn1nccc1Nc1nccc(-c2cc3c(s2)C(C)(C)N(CCN2CCOCC2)C3=O)n1 + COc1cc2nc(C)nc(NC(C)c3cc(N)cc(C(F)(F)F)c3)c2cc1OC1CCOC1 strictly below 30%?
Condition not met

Decide: viability, T/C of CCNC(=O)CC1N=C(c2ccc(Cl)cc2)c2cc(OC)ccc2-n2c(C)nnc21 (centres undefined) + CNCc1ccccc1-c1csc(C(C)Nc2nc(C)nc3cc(OC)c(OC)cc23)c1 strictly below 30%?
Condition not met
